Below: a set of entries, each annotated with reported percent remaining with NADPH.
# System: human liver microsomes, compound remaining, LC-MS
# test.protocol: human microsomal compound turnover – biochemical, with and without NADPH, LC-MS, set 2, ADME assay (AID 624452);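 note: compound left measured after 60 min microsomal incubation at 37 °C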
# settings: at 1 µM
assay.endpoint: percent remaining with NADPH (%)

[[record]]
compound = "O=C(O)c1ccc(N2C(=O)/C(=C/c3ccc(-c4ccc([N+](=O)[O-])cc4)o3)C=C2c2ccccc2)cc1"
assay_result = 67.9

[[record]]
compound = "O=C(CCNS(=O)(=O)c1cccc2nsnc12)N1CCN(c2ccccn2)CC1"
assay_result = 3.36

[[record]]
compound = "CN(C)c1oc(-c2ccc(OCc3ccc(Cl)cc3)cc2)nc1C#N"
assay_result = 35.5

[[record]]
compound = "COc1ccc(N(C(=O)CCl)C(C(=O)NCCc2ccccc2)c2cccs2)cc1Cl (stereo unspecified)"
assay_result = 1.54

[[record]]
compound = "CCOc1ccc(NC(=S)N2CCC(C(O)(c3ccccc3)c3ccccc3)CC2)cc1"
assay_result = 22.7

[[record]]
compound = "Cc1ccc(C)c(OCCn2cc(C(=O)O)c3ccccc32)c1"
assay_result = 35.8

[[record]]
compound = "O=S1(=O)Nc2c(ccc3cccnc23)-c2ccccc21"
assay_result = 64.4

[[record]]
compound = "COc1nc(-c2ccccc2)nnc1-c1ccccc1"
assay_result = 8.41

[[record]]
compound = "O=C(COC(=O)C12CC3CC(CC(C3)C1)C2)NCc1ccco1"
assay_result = 84.8

[[record]]
compound = "Cc1ccc(-n2c(N)c(C#N)c(-c3ccccc3)c(C#N)c2=O)cc1"
assay_result = 64

[[record]]
compound = "CCN1CCN(c2nc3ccccc3nc2C(C#N)C(=O)OC2CCCCC2)CC1 (stereo unspecified)"
assay_result = 14.2


###

# System: human liver microsomes, compound remaining, LC-MS
# test.protocol: human microsomal compound turnover – biochemical, with and without NADPH, LC-MS, set 2, ADME assay (AID 624452);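 note: compound left measured after 60 min microsomal incubation at 37 °C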
# settings: measured here: stability without NADPH control; at 1 µM
assay.endpoint: percent remaining without NADPH (%)

[[record]]
smiles_code = "Cc1ccc(S(=O)(=O)NCc2ccc(C(=O)NCCN(Cc3ccccc3)C(C)C)cc2)cc1"
assay_result = 80.3

[[record]]
smiles_code = "Cc1cc(-c2nnc3n2CCCCC3)c(C)n1-c1ccccc1"
assay_result = 74.8

[[record]]
smiles_code = "COc1ccc(OC)c(S(=O)(=O)Nc2cnc3ccccc3c2)c1"
assay_result = 71.5

[[record]]
smiles_code = "CCCOc1ccc(-c2nc(OC)c3ccccc3n2)cc1"
assay_result = 81.5

[[record]]
smiles_code = "O=C(O)c1ccc(N2C(=O)/C(=C/c3ccc(-c4ccc([N+](=O)[O-])cc4)o3)C=C2c2ccccc2)cc1"
assay_result = 74.3

[[record]]
smiles_code = "Cc1nc(SCc2nc3ccccc3[nH]2)c2oc3ccccc3c2n1"
assay_result = 70.5

[[record]]
smiles_code = "CCCC(=O)Nc1cccc(NC(=O)c2ccccc2Br)c1"
assay_result = 71.2

[[record]]
smiles_code = "Cn1nnnc1Sc1ncnc2scc(-c3ccccc3)c12"
assay_result = 67.5

[[record]]
smiles_code = "C/C=C/Cn1c(SCCCc2ccccc2)nc2c1c(=O)[nH]c(=O)n2C"
assay_result = 69.3

[[record]]
smiles_code = "Cc1ccc(S(=O)(=O)n2c(N)nc3ccccc32)cc1"
assay_result = 79.3

[[record]]
smiles_code = "O=S1(=O)Nc2c(ccc3cccnc23)-c2ccccc21"
assay_result = 68

